Assayed target: cAMP and cAMP-inhibited cGMP 3',5'-cyclic phosphodiesterase 10A (Homo sapiens, UniProt Q9Y233)
Sequence (Q9Y233 whole entry): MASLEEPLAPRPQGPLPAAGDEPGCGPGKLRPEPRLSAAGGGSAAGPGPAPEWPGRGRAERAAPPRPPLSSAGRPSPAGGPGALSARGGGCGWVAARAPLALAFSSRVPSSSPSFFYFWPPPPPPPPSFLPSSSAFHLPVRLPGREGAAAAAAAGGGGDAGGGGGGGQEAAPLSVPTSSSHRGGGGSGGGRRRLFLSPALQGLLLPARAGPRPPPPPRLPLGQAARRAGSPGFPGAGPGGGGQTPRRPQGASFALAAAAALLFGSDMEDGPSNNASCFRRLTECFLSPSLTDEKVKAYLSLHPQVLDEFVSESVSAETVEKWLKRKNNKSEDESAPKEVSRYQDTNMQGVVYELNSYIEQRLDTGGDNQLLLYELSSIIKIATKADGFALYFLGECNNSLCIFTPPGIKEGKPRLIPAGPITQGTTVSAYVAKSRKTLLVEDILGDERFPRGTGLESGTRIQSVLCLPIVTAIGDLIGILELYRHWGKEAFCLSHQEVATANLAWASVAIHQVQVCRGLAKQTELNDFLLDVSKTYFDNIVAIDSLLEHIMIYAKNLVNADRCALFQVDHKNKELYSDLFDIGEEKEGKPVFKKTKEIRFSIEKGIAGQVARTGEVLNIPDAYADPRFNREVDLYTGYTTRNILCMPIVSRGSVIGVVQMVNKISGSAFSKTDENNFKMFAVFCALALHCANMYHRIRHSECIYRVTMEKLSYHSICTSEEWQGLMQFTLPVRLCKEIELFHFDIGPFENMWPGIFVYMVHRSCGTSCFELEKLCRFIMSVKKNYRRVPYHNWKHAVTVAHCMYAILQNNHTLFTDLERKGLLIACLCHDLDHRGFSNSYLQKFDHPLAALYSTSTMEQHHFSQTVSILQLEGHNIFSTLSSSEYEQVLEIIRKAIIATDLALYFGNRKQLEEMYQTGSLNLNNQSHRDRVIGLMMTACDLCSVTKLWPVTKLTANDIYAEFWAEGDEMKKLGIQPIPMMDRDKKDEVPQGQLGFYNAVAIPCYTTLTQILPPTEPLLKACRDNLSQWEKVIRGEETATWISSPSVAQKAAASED
pKi: −log10 of the molar value.
Observation type: pKi

[P] Cc1ccc([C@H]2C[C@@H]2COc2nc(C)ncc2-c2ccc(=O)n(CC#N)c2)nc1
[Q] Cc1ncc(-c2cc(F)c(=O)n(C)c2)c(OC[C@H]2C[C@@H]2c2ccc3ccccc3n2)n1
q: pKi comparison. Which is larger, P or Q ? Give the label under which the chosen entry appears.
a: Q
(Q: 10.39, P: 8.46)
